Please provide measured IC50 for the entries that follow.
# Test system: L02 cells
# TEST_PROTOCOL: MTT assay, toxicity to human normal liver cells
# Format: cell-based
# EXPERIMENTAL_CONDITIONS: 24 h, mean ± s, n = 3
Numbers only, in µM.

Below are worked cases with known answers.
{"columns": ["COMPOUND", "IC50 (µM)"],
 "data": [
  ["N.N.[Cl][Pt][Cl] [Cisplatin solution, reference compound]", 48.4],
  ["O=C1C(=Cc2ccccc2Cl)CNCC1=Cc1ccccc1Cl", 70.5],
  ["O=C1C(=Cc2cc(Cl)ccc2Br)CNCC1=Cc1cc(Cl)ccc1Br", 58.2]
]}

We now examine a further compound.
[ask] Quote IC50 reported for O=C1C(=Cc2cc(Cl)ccc2Cl)CNCC1=Cc1cc(Cl)ccc1Cl please.
[reply] 48.6
